// data source = BindingDB's records for patent US12065399

# test_system: Metabotropic glutamate receptor 4 (Homo sapiens, UniProt Q14833)
# Sequence (Q14833 whole entry): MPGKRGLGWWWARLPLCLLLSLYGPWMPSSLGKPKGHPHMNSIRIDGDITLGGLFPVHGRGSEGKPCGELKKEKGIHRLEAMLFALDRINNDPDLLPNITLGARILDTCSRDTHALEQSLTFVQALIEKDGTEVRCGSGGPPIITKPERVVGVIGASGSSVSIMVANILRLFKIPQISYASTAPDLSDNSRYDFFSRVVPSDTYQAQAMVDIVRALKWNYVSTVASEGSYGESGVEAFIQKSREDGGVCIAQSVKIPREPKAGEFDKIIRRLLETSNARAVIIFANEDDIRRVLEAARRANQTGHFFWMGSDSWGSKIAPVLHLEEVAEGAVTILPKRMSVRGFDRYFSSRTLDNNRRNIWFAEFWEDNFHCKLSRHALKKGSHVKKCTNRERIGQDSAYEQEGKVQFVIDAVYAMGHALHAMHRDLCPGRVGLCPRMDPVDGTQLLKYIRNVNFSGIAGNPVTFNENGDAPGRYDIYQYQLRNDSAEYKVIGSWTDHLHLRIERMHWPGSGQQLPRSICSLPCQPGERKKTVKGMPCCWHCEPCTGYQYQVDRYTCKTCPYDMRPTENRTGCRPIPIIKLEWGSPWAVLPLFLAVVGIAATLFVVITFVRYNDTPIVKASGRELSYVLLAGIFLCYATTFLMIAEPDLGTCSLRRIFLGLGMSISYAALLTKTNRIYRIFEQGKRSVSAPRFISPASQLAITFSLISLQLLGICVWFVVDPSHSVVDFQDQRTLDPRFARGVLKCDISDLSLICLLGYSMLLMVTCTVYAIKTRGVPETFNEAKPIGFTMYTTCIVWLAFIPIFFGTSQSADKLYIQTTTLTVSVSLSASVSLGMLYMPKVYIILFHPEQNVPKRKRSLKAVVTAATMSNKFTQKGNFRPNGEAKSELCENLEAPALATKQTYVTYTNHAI
# test_protocol: Intracellular Ca2+ Mobilization Assay (FLIPR)
property_name: EC50 (µM)
Use µM as the unit, but write only the number.

Asked: # EC50 lookup, item CC(C)(C)c1cnn(-c2cc(F)c(NS(=O)(=O)c3cccc(Cl)c3Cl)c(F)c2)c1
Given back: 9.28
